These measurements were taken from patent US20230339915A1.

# Target: NL20 human bronchial epithelial cells expressing human Z-AAT (Homo sapiens (Human), UniProt P01009, E366K)
# Sequence (P01009 25-418 E366K limits assumed): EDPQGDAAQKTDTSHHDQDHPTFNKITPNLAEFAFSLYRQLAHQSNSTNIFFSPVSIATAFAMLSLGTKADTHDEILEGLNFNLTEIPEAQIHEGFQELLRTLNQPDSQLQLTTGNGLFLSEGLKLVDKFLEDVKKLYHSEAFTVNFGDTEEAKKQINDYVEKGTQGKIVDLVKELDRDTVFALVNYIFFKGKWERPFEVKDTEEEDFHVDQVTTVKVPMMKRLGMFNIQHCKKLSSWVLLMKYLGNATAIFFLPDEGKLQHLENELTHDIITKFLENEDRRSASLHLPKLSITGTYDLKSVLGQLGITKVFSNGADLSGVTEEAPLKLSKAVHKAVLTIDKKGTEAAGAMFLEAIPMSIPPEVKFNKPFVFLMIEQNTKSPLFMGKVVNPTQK
# Experimental protocol: AAT Function Assay (MSD Assay NL20-SI Cell Line)
# Recorded conditions: functionally active AAT (AAT-hNE complex, MSD) in supernatant of NL20 cells expressing human Z-AAT; read-out: NL20 Functional EC50
pEC50: −log10 of the molar value.
Assay metric: pEC50

// known answers, use as guide
Compound	Assay metric	Experimental result
Cc1cc(-n2c(C(C)C)c(C(C)CC(=O)O)c3cc(O)ccc32)ccc1F (stereo not drawn) [Compound 176]	pEC50	5.70 to 6.30
CCc1c([C@H]2C[C@@H]2C(=O)O)c2cc(O)ccc2n1-c1ccc(F)c(C)c1 [Compound 127]	pEC50	< 5.70
O=C(O)[C@]1(CF)C[C@@H](c2c(C3CCOCC3)n(-c3ccc(F)cc3)c3ccc(O)cc32)C1 [Compound 118]	pEC50	< 5.70
Cc1cc(-n2c(C(C)C)c([C@H]3C[C@@H](CO)C3)c3cc(O)ccc32)ccc1F [Compound 226]	pEC50	< 5.70
CC(C)c1c([C@H]2C[C@@](C)(C(=O)O)C2)c2cc(O)ccc2n1-c1ccc(F)c(Cl)c1 [Compound 76]	pEC50	< 5.70

Query: Recorded pEC50 of Cc1cc(-n2c(C3CCOCC3)c(CC3CC(C(=O)O)C3)c3cc(O)ccc32)ccc1F (stereo not drawn) [Compound 25] , please.
Response: 5.70 to 6.30

Query: Look up pEC50 for this compound: C[C@]1(C(=O)O)C[C@H](c2c(C3CCOCC3)n(-c3ccc(F)cc3)c3ccc(O)cc32)C1 [Compound 48]
Response: < 5.70

Query: Could you share which pEC50 value was measured for Cc1cc(-n2c(C(C)C)c([C@H]3C[C@@H](C(=O)NS(C)(=O)=O)C3)c3cc(O)ccc32)ccc1F [Compound 219] ?
Response: < 5.70

Query: Please give the measured pEC50 for this compound: N#Cc1c(C2CCNCC2)n(-c2ccc(F)cc2)c2ccc(O)cc12 [Compound 200]
Response: < 5.70

Query: Any idea what pEC50 was measured for Cc1cc(-n2c(C(C)C)c(CCC(F)(F)C(=O)O)c3cc(O)ccc32)ccc1F [Compound 59] ?
Response: < 5.70

Query: Form field: reported pEC50 of Cc1cc(-n2c(C(C)C)c(C3CC4(C3)CC(F)(C(=O)O)C4)c3cc(O)ccc32)ccc1F (stereo not drawn) [Compound 148]
Response: > 6.30

Query: What value of pEC50 has been reported for the following compound? Cc1cc(-n2c(C3CCOCC3)c([C@H]3CCC[C@@H](CC(=O)O)C3)c3cc(O)ccc32)ccc1F (racemic) [Compound 105]
Response: 5.70 to 6.30

Query: Any idea what pEC50 was measured for O=C(O)C1CC2(C1)CC(c1c(C3CCOCC3)n(-c3ccccc3)c3ccc(O)cc13)C2 (stereo not drawn) [Compound 54] ?
Response: < 5.70
